target: BTK (Mus musculus, UniProt P35991); construct: from tissue; host or cells: mouse blood B cells / splenocytes (CD-1 or BALB/c); test: In vivo degradation of BTK in mouse PD experiments with oral dosing; settings: oral dose 30 mg/kg, 24 h, blood, flow cytometry
Sequence (P35991 whole entry): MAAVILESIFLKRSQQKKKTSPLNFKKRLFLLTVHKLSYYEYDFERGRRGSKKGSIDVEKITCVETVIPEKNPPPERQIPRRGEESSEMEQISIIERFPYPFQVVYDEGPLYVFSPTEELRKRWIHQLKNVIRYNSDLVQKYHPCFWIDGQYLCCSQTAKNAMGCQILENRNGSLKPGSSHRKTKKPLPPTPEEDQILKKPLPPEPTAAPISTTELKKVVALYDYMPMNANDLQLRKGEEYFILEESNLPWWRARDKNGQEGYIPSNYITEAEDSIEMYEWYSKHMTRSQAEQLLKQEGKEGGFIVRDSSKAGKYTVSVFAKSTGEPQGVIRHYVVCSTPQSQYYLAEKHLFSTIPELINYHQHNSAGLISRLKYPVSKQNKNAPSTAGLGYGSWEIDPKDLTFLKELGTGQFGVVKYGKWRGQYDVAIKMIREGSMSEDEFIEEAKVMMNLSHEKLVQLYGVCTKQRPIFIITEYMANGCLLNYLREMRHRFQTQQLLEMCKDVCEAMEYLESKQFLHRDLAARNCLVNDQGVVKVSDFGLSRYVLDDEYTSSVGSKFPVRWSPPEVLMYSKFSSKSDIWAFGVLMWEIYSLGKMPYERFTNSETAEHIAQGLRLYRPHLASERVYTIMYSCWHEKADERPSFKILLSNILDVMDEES
Respond with 1 for % BTK Remaining values of 30% and above, -1 for values below.

IN: Has O=C1CC[C@H](N2C(=O)c3ccc(N4CC[C@H](CN5CCC(c6ccc(Nc7nc(-c8nccs8)cn8ccnc78)cc6)CC5)C4)cc3C2=O)C(=O)N1 [Compound 203] a recorded % BTK Remaining greater than or equal to 30%?
OUT: 1

IN: Has CN1CCN([C@@H]2CCCN(c3cnc(C(N)=O)c(Nc4ccc(N5CCC6(CC5)CCN(c5ccc7c(c5)C(=O)N(C5CCC(=O)NC5=O)C7=O)CC6)cc4)n3)C2)C1=O (stereo partly drawn) [Compound 55] a recorded % BTK Remaining greater than or equal to 30%?
OUT: 1

IN: Has Cn1c(=O)n([C@@H]2CCC(=O)NC2=O)c2ccc(N3CC[C@@H](CN4CCC(c5ccc(Nc6nc(N7CCCCC7)cnc6C(N)=O)cc5)CC4)C3)cc21 [Compound 197] a recorded % BTK Remaining greater than or equal to 30%?
OUT: -1

IN: Has CN1CCN([C@@H]2CCCN(c3cnc(C(N)=O)c(Nc4ccc(C5CCN(C[C@H]6CCN(c7ccc8c(c7)CN(C7CCC(=O)NC7=O)C8=O)C6)CC5)cc4)n3)C2)C1=O (stereo partly drawn) [Compound 117] a recorded % BTK Remaining greater than or equal to 30%?
OUT: 1

IN: Has CN1CCN([C@@H]2CCCN(c3cnc(C(N)=O)c(Nc4ccc(C5CCN(C[C@@H]6CCN(c7ccc8c(c7)n(C)c(=O)n8[C@@H]7CCC(=O)NC7=O)C6)CC5)cc4)n3)C2)C1=O [Compound 199] a recorded % BTK Remaining greater than or equal to 30%?
OUT: -1

IN: Has NC(=O)c1ncc(N2CCCC3(COC3)C2)nc1Nc1ccc(C2CCN(C[C@H]3CCN(c4ccc5c(c4)C(=O)N(C4CCC(=O)NC4=O)C5=O)C3)CC2)cc1 (stereo partly drawn) [Compound 126] a recorded % BTK Remaining greater than or equal to 30%?
OUT: 1

Data credit: patent US12600732B2
